# measurement.protocol: MTT reduction cytotoxicity assay
# Type: cell-based, mouse
# condition.description: mouse, L929 cells (mouse fibroblasts), 10 μg/mL, read-out: mean percentage of viable cells ± SD
reported.endpoint: viability at 24 h, 10 μg/mL (%)
Just the number in %, nothing appended.

The molecule identified as C[C@@H]1CC(=O)O[C@H](c2cccc3ccccc23)[C@H]1Cl (relative stereo) registered its viability at 24 h, 10 μg/mL at 8

The molecule identified as C[C@@H]1CC(=O)O[C@H]1[C@@H](O)c1cccc2ccccc12 (mixture of isomers) [12a] registered its viability at 24 h, 10 μg/mL at 8

The molecule identified as CC1CC(=O)OC(c2ccccc2)C1Br (stereo not drawn) registered its viability at 24 h, 10 μg/mL at 10

The molecule identified as CC1CC(=O)OC(c2ccccc2)C1I (stereo not drawn) registered its viability at 24 h, 10 μg/mL at 11

The molecule identified as C[C@@H]1CC(=O)O[C@@H]1[C@@H](O)c1cccc2ccccc12 [13a] registered its viability at 24 h, 10 μg/mL at 6

The molecule identified as CC1CC(=O)OC(c2cccc3ccccc23)C1Br (stereo not drawn) registered its viability at 24 h, 10 μg/mL at 6
